# SYSTEM: Indole amine 2,3-dioxygenase 1 (IDO1) (Homo sapiens, UniProt P14902)
# Sequence (P14902 whole entry): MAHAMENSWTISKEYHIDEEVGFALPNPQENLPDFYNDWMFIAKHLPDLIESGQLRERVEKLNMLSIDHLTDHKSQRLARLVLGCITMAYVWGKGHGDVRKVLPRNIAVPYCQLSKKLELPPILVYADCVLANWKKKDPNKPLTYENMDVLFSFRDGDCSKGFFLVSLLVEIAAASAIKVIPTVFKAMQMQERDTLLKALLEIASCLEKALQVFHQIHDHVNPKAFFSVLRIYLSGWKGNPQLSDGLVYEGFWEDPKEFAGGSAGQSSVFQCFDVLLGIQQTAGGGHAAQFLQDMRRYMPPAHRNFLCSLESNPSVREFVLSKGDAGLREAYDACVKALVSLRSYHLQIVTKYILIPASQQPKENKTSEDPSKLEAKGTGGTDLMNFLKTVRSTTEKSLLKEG
OUTCOME MEASURE: pIC50
By convention, pIC50 is the negative base-10 log of a molar concentration.

Request the reported pIC50 associated with O=C1c2ccccc2-n2c1nc1ccccc1c2=O [TRYP, indolo [2,1-b]quinazoline-6,12-dione] 4.76
